- Tested on: SK-OV-3 ovarian
- PROTOCOL NOTES: NCI-60 one-dose screen, 48 h (100 = growth as untreated, 0 = no growth, -100 = all killed)
- CONDITIONS USED: 10 µM unless noted
- Description: Growth inhibition of the SK-OV-3 human tumor cell line is measured as a screen for anti-cancer activity. Cells are grown in 96 well plates and exposed to the test compound for 48 hours. Compounds are tested at a single concentration, which is 10^-5 M for most compounds. The reported endpoint is percent growth (GI% or GIPRCNT), where numbers from 0 - 100% represent growth inhibition, and numbers from -100% - 0 represent cell death. For example, a value of 40 represents 60% growth inhibition. […]
Compounds without any hit were thinned out: in the full panel of roughly 83,000, 20% have a hit. Active and inactive are the calls of the source. Rule for the calls: active = growth percent below 10; inactive = the rest.
RESULT TYPE: growth

Worked cases, growth given:
O=C(COc1ccc(/C=C2\Cc3ccccc3C2=O)cc1)c1ccc(Cl)cc1; 112% (inactive)
O=C(O)CCC(=O)OC[C@@H](NC(=O)C(Cl)Cl)[C@H](O)c1ccc([N+](=O)[O-])cc1; 107% (inactive)
O=[N+]([O-])c1ccc(NS(=O)(=O)c2ccc(Cl)c(Cl)c2)cc1; 94.3% (inactive)
FC(F)(F)c1cc(-c2nnc3n2N=C(N2CCCC2)CS3)cc(C(F)(F)F)c1; 21% (inactive)

Proceeding to the next molecule to report its growth.
Record COc1ccc(NC(=O)c2ccc(-c3ccccc3)cc2)c(C(N)=O)c1 . Reported growth: 98.5% (inactive)

* * *

- Tested on: IGROV1 ovarian
- PROTOCOL NOTES: NCI-60 one-dose screen, 48 h
- CONDITIONS USED: 10 µM unless noted
Compounds without any hit were thinned out: in the full panel of roughly 83,000, 20% have a hit. Activity calls are given as the source filed them. The calls were made as follows: active = growth percent below 10; inactive = the rest.
Return exactly one item of active, inactive

Take a look at these entries with their results.
Cc1ccc(C(NC(=O)c2ccccc2)c2ccc3cccnc3c2O)cc1 (stereo unspecified); inactive
C1CCC(C(CC2CCCCN2)C2CCCCC2)CC1 (stereo unspecified); active
COc1ccc(OC)c(CCn2cncc2-c2c[nH]c3cc(Br)ccc23)c1; inactive

Problem: What did the test return for O=C1CNc2cc(Cl)ccc2N1 ?
Result: inactive

Problem: // outcome(item) with item = COc1ccc(NC(=O)c2ccccc2-c2ccccc2)c(C(N)=O)c1
Result: inactive

Problem: // outcome(item) with item = CCOC(=O)c1cnc2c(C)cc(C)cc2c1NCCCN(C)C
Result: active

Problem: Hi, do you know how COc1cccc(/C=C2\Cc3ccccc3C2=O)c1 came out in this test?
Result: inactive

Problem: Dear colleague, could you share the recorded outcome for NC(=NCCCCCCN=C(N)/N=C(\N)Nc1ccc(Cl)cc1)/N=C(\N)Nc1ccc(Cl)cc1 when you have a moment?
Result: active

Problem: Hi, sorry to bother you, what did the test record for COc1cc(C(=O)/C=C/c2cccc(Nc3ccnc4cc(Cl)ccc34)c2)cc(OC)c1OC ?
Result: active

Problem: # outcome recorded in this test, key = Cc1cc(C)c(C(=O)c2cccs2)c(C)c1
Result: inactive

Problem: Hey, what did the test say about O=[N+]([O-])c1ccc(NS(=O)(=O)c2ccc(Cl)c(Cl)c2)cc1 ?
Result: inactive

* * *

- System: NCI-H322M lung
- PROTOCOL NOTES: NCI-60 one-dose screen, 48 h (100 = growth as untreated, 0 = no growth, -100 = all killed)
- CONDITIONS USED: 10 µM unless noted
Compounds without any hit were thinned out: in the full panel of roughly 83,000, 20% have a hit.
RESULT TYPE: growth (%)
Answers are plain numbers, in %.

Previously resolved entries follow.
COc1ccc(N2CCN(CC(=O)N3CCN(c4nnc(-c5ccccc5)c(-c5ccccc5)n4)CC3)CC2)cc1; 78.2
COc1cc(/C=C/c2cc(/C=C/c3ccc(O)c(OC)c3)n(C(=O)Cc3ccccc3)n2)ccc1O; 9.62
COc1cc(/C=N/NC(=O)c2ccc(C(F)(F)F)nc2Nc2ccc(Cl)cc2C)ccc1O; 25.5
O=C(Nc1ccccc1S)c1ccccc1; 103
CCCCCCCCCCCCCCCCNC(=O)Nc1ccc2ccccc2c1; 110

Items follow; give growth for each.
1. CN(C)c1ccc(-n2nc3ccccc3n2)cc1
2. CCNCCCn1c2c(c3ccc(F)cc3c1=O)C(=O)c1cc(OC)cnc1-2
3. CCOc1cc(/C=C/C(=O)C(C(=O)/C=C/c2ccc(OC(=O)CNc3nnc(C)s3)c(OCC)c2)C(=O)CNc2nnc(C)s2)ccc1OC(=O)CNc1nnc(C)s1
4. COc1ccc2c(c1)sc1nc(-c3ccc(Br)cc3)cn12
5. CC[n+]1c(/C=C/c2ccc(N3CCCC3)cc2)cccc1/C=C/c1ccc(N2CCCC2)cc1

Result:
[111, -3.52, 6.22, 99.8, -86.7]

Quick batch: growth for everything below.
1. O=C(Nc1nc2c(C(F)(F)F)cccc2s1)c1cc(Cl)ccc1O
2. C=CCN(/C=C/CN(CC=C)CC=C)CC=C
3. O=C(O)C1CCN(S(=O)(=O)c2ccc(-c3ccccc3)cc2)CC1
4. N#Cc1c(-c2ccccc2)cc(-c2ccccc2)n(CCCCCCC(=O)O)c1=O

Result:
1. 4.87
2. 96.7
3. 124
4. 96.5

* * *

- Test system: MOLT-4 leukemia
- PROTOCOL NOTES: NCI-60 one-dose screen, 48 h
- CONDITIONS USED: 10 µM unless noted
Compounds without any hit were thinned out: in the full panel of roughly 83,000, 20% have a hit. Active and inactive are the calls of the source. Rule for the calls: active = growth percent below 10; inactive = the rest.
Log the outcome using a class from True (active), False (inactive)

Some entries whose results are on file:
CCn1cnc(C[C@H](NC(=O)[C@H](CCCCNC(=O)Nc2cc(C(F)(F)F)cc(C(F)(F)F)c2)NC(=O)Nc2cc(C(F)(F)F)cc(C(F)(F)F)c2)C(=O)OC)c1; True
O=C(CNC(=O)c1cccc2ccccc12)Nc1ccccc1Oc1ccc(O)cc1; False
Cc1[nH]ccc2cc3nc4ccccc4c3cc12; True
CCOC(=O)C(Br)=P(c1ccccc1)(c1ccccc1)c1ccccc1; False
COc1ccc2[nH]c(=O)c(CNc3ccc(Nc4nccc(-c5ccc(Cl)cc5)n4)cc3)cc2c1; False
Cc1ccc(S(=O)(=O)N2CCN(C(=O)CSc3nc4ccc(C)cc4[nH]3)CC2)cc1; False
CCOC(=O)/C(=C/CC/C(C)=C/CC/C(C)=C/CCc1ccoc1)CC(=O)N1CCCCC1; True
COc1ccc(C(=O)/C=C/c2cccc(Nc3ccnc4cc(Cl)ccc34)c2)cc1; False

Problem: Recorded test outcome, item O=c1sc2ncnc3ncn1c32
Result: False

Problem: GET /call?item= COc1cc(/C=N/NC(=O)c2ccc(C(F)(F)F)nc2Nc2cc(Cl)ccc2C)cc(OC)c1OC returns the recorded outcome of this test.
Result: False

Problem: Assay result, entry Oc1c(Cl)cc(Oc2cc(Cl)c(O)c(CN3CCOCC3)c2)cc1CN1CCOCC1 — outcome?
Result: False

Problem: Query: recorded result category for NC(=O)c1cc(Br)cc(Br)c1NS(=O)(=O)c1ccccc1 in this test
Result: False

* * *

- Test system: SNB-75 CNS
- PROTOCOL NOTES: NCI-60 one-dose screen, 48 h (100 = growth as untreated, 0 = no growth, -100 = all killed)
- CONDITIONS USED: 10 µM unless noted
The panel holds about 83,000 compounds, 20% with a hit somewhere; the sample as a whole holds those more often.
Checkbox rule: growth lower than 60% = condition met; growth not lower than 60% = condition not met.

COc1ccc(C(=O)COc2ccc(/C=C3\Oc4ccc5ccccc5c4C3=O)cc2)cc1; condition not met
CC1C(=O)NC2=Nc3ccccc3C(=O)NN21 (stereo not given); condition not met
CC1C(C)N(C(=O)CCl)c2ccccc2N1C(=O)CCl (stereo not given); condition met
C=CCN(/C=C/CN(CC=C)CC=C)CC=C; condition not met
O=C(/C=C/c1ccc(C(F)(F)F)cc1)c1ccc(Nc2nc(NCCO)nc(NCCO)n2)cc1; condition met
c1ccc(COc2ccc(Nc3ncnc4c3cnn4-c3ccccc3)cc2)cc1; condition not met
COc1ccc(CNC(=O)c2c(C)n([O-])c3ccc(OC)cc3[n+]2=O)cc1; condition not met
O=C(N/N=C/c1cccc([N+](=O)[O-])c1)c1ccc(Br)o1; condition not met

Problem: Please determine if CO[C@H]1/C=C/O[C@@]2(C)Oc3c(C)c(O)c4c(O)c(c(/C=N/N5C(C)CN(Cc6ccc(C#N)cc6)CC5C)c(O)c4c3C2=O)NC(=O)/C(C)=C\C=C\[C@H](C)[C@H](O)[C@@H](C)[C@@H](O)[C@@H](C)[C@H](OC(C)=O)[C@@H]1C (stereo not given in full) is below 60% in terms of growth.
Result: condition met

Problem: hey, is growth for NC(=NCCCCCCN=C(N)/N=C(\N)Nc1ccc(Cl)cc1)/N=C(\N)Nc1ccc(Cl)cc1 lower than 60% or not?
Result: condition met
